- test_system: T1, human TREM2 (human) (UniProt Q9NZC2)
- T1 sequence (looked up): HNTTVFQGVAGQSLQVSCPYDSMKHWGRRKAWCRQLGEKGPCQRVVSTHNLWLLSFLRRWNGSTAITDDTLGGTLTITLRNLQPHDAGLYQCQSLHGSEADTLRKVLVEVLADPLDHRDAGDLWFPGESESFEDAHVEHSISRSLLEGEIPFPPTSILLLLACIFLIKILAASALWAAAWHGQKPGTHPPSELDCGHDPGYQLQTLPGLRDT
- assay: 1st screen, 110 nM Ab
readout: Binding Signal (fold over 6E7 parental antibody) (fold)
Number only, in fold; omit the unit.

Here is how some binders turned out for Binding Signal (fold over 6E7 parental antibody).
6E7 variant V69 (antibody, V domains shown) VH: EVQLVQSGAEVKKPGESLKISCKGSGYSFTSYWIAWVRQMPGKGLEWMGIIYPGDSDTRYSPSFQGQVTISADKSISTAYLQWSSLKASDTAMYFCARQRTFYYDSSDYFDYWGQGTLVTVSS VL: DIQMTQSPSSVSASVGDRVTITCRASQGISSYLAWYQQKPGKAPKLLIYAASSLQNGVPSRFSGSGSGTDFTLTISSLQPEDFATYFCQQADSFPRTFGQGTKLEIK: 0.41
6E7 variant V22 (antibody, V domains shown) VH: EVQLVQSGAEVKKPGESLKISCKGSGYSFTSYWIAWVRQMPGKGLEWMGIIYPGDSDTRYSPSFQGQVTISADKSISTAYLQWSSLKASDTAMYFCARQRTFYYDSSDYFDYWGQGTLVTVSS VL: DIQMTQSPSSVSASVGDRVTITCRASQGISSWLAWYQQKPGKAPKLLIYRASSLQNGVPSRFSGSGSGTDFTLTISSLQPEDFATYFCQQADSFPRTFGQGTKLEIK: 0.3

Please look at the following binder next.
Prompt: Please report the recorded Binding Signal (fold over 6E7 parental antibody) for 6E7 variant V66 (antibody, V domains shown) VH: EVQLVQSGAEVKKPGESLKISCKGSGTSFTSYWIAWVRQMPGKGLEWMGIIYPGDSDTRYSPSFQGQVTISADKSISTAYLQWSSLKASDTAMYFCARQRTFYYDSSDYFDYWGQGTLVTVSS VL: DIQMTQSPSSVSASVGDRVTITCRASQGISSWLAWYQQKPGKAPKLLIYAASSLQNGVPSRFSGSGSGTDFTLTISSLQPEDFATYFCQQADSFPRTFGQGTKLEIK .
Completion: 0.25
